Hey, just so you know, these numbers are from ChEMBL document CHEMBL3797069.

System: J774
Assay: Antiinflammatory activity against mouse J774 cells assessed as inhibition of LPS-induced COX-2 expression measured as remaining protein levels at 10 uM after 24 hrs by Western blot analysis
Type: functional
For each of the molecules below, state its Activity.
Numbers only, in %.

SMI	Activity / %
C=C(C)[C@@H]1CC[C@]2(C(=O)O)CC[C@]3(C)[C@H](CC[C@@H]4[C@@]5(C)Cc6c([nH]c7ccccc67)C(C)(C)[C@@H]5CC[C@]43C)[C@@H]12	140.9
CCC(=O)OC[C@]12CC[C@]3(C(C)C)C1=C1[C@H](C[C@@H]4[C@@]5(C)CC[C@H](OC(=O)CC)C(C)(C)[C@@H]5CC[C@@]4(C)[C@]1(C)CC2)n1c(=O)n(C)c(=O)n13	43

Now, please, on to the next molecule.
Record summary for "CC1(C)CC[C@]23CC[C@]4(C)[C@H](CC[C@@H]5[C@@]6(C)Cc7c([nH]c8ccc(F)cc78)C(C)(C)[C@@H]6CC[C@]54C)[C@H]2C1OC3" : reported Activity = 91.8

----------
Test system: J774
Assay: Antiinflammatory activity against mouse J774 cells assessed as inhibition of LPS-induced MCP-1 production measured as remaining MCP-1 levels at 10 uM after 24 hrs by ELISA
Format: functional
MEASUREMENT_NAME: Activity (%)
Answers are plain numbers, in %.

Example entries and their recorded answers appear below.
MOLECULE	MEASUREMENT_UNIT	REPORTED_VALUE
C=C(C)[C@@H]1CC[C@]2(/C=N/O)CC[C@]3(C)[C@H](CC[C@@H]4[C@@]5(C)CC[C@H](O)C(C)(C)[C@@H]5CC[C@]43C)[C@@H]12	%	136.9
C=C(C)[C@@H]1CC[C@]2(C(=O)O)CC[C@]3(C)[C@H](CC[C@@H]4[C@@]5(C)Cc6c([nH]c7ccccc67)C(C)(C)[C@@H]5CC[C@]43C)[C@@H]12	%	83.4
CCC(=O)OC[C@]12CC[C@]3(C(C)C)C1=C1[C@H](C[C@@H]4[C@@]5(C)CC[C@H](OC(=O)CC)C(C)(C)[C@@H]5CC[C@@]4(C)[C@]1(C)CC2)n1c(=O)n(C)c(=O)n13	%	80.3
C=C(C)[C@@H]1CC[C@]2(CO)CC[C@]3(C)[C@H](CC[C@@H]4[C@@]5(C)CC[C@H](O)C(C)(C)[C@@H]5CC[C@]43C)[C@@H]12 [BETULIN]	%	206.5
C=C(C)[C@@H]1CC[C@]2(C(=O)O)CC[C@]3(C)[C@H](CC[C@@H]4[C@@]5(C)CC6OC(C)(C)OC6C(C)(C)[C@@H]5CC[C@]43C)[C@@H]12 (stereo not given in full)	%	87
C=C(C)[C@@H]1CC[C@]2(C=O)CC[C@]3(C)[C@H](CC[C@@H]4[C@@]5(C)Cc6cnoc6C(C)(C)[C@@H]5CC[C@]43C)[C@@H]12	%	102.1
C=C(C)[C@@H]1CC[C@]2(C(=O)O)CC[C@]3(C)[C@H](CC[C@@H]4[C@@]5(C)Cc6c([nH]c7ccc(OC)cc67)C(C)(C)[C@@H]5CC[C@]43C)[C@@H]12	%	73.1
C=C(C)[C@@H]1CC[C@]2(C(=O)O)CC[C@]3(C)[C@H](CC[C@@H]4[C@@]5(C)CCC(=O)C(C)(C)[C@@H]5CC[C@]43C)[C@@H]12 [BETUNOLIC ACID]	%	118
CC1(C)CC[C@]23CC[C@]4(C)[C@H](CC[C@@H]5[C@@]6(C)Cc7c([nH]c8ccc(F)cc78)C(C)(C)[C@@H]6CC[C@]54C)[C@H]2C1OC3	%	108.5

Record "CC1(C)CC[C@]23CC[C@]4(C)[C@H](CC[C@@H]5[C@@]6(C)Cc7c([nH]c8ccccc78)C(C)(C)[C@@H]6CC[C@]54C)[C@H]2C1OC3" . Reported Activity: 96.2

----------
Tested on: J774
Test: Antiinflammatory activity against mouse J774 cells assessed as inhibition of LPS-induced COX-2 expression measured as remaining protein levels at 10 uM after 24 hrs by Western blot analysis
Assay type: functional
Give measured Activity for each item. Keep answers brief.
Answer format reminder: number followed by unit.

Recorded Activity, per entry:
MOLECULE	ASSAYED_SYSTEM	REPORTED_VALUE
C=C(C)[C@@H]1CC[C@]2(C(=O)O)CC[C@]3(C)[C@H](CC[C@@H]4[C@@]5(C)CC[C@H](O)C(C)(C)[C@@H]5CC[C@]43C)[C@@H]12 [BETULINIC ACID]	J774	96%
CC1(C)CC[C@]23CC[C@]4(C)[C@H](CC[C@@H]5[C@@]6(C)Cc7c([nH]c8ccccc78)C(C)(C)[C@@H]6CC[C@]54C)[C@H]2C1OC3	J774	94.8%
C=C(C)[C@@H]1CC[C@]2(C(N)=O)CC[C@]3(C)[C@H](CC[C@@H]4[C@@]5(C)Cc6nccnc6C(C)(C)[C@@H]5CC[C@]43C)[C@@H]12	J774	89.9%
C=C(C)[C@@H]1CC[C@]2(/C=N/O)CC[C@]3(C)[C@H](CC[C@@H]4[C@@]5(C)CC[C@H](O)C(C)(C)[C@@H]5CC[C@]43C)[C@@H]12	J774	127%
C=C(C)[C@@H]1CC[C@]2(C(=O)O)CC[C@]3(C)[C@H](CC[C@@H]4[C@@]5(C)CC6OC(C)(C)OC6C(C)(C)[C@@H]5CC[C@]43C)[C@@H]12 (some centres not stated)	J774	117.4%

Give Activity for each of the items listed below.
1. C=C(C)[C@@H]1CC[C@]2(C(N)=O)CC[C@]3(C)[C@H](CC[C@@H]4[C@@]5(C)Cc6cnoc6C(C)(C)[C@@H]5CC[C@]43C)[C@@H]12
2. C=C(C)[C@@H]1CC[C@]2(C(=O)O)CC[C@]3(C)[C@H](CC[C@@H]4[C@@]5(C)CCC(=O)C(C)(C)[C@@H]5CC[C@]43C)[C@@H]12 [BETUNOLIC ACID]

105.5%
107.1%

----------
System: J774
Test: Antiinflammatory activity against mouse J774 cells assessed as inhibition of LPS-induced MCP-1 production measured as remaining MCP-1 levels at 10 uM after 24 hrs by ELISA
Type: functional
Kindly return Satisfied if reported Activity is no lower than 70%; return Not satisfied if it is lower.

COMPOUND	CATEGORY_LABEL
C=C(C)[C@@H]1CC[C@]2(C(N)=O)CC[C@]3(C)[C@H](CC[C@@H]4[C@@]5(C)Cc6cnoc6C(C)(C)[C@@H]5CC[C@]43C)[C@@H]12	Not satisfied
C=C(C)[C@@H]1CC[C@]2(C(=O)O)CC[C@]3(C)[C@H](CC[C@@H]4[C@@]5(C)CC[C@H](O)C(C)(C)[C@@H]5CC[C@]43C)[C@@H]12 [BETULINIC ACID]	Satisfied
C=C(C)[C@@H]1CC[C@]2(C(N)=O)CC[C@]3(C)[C@H](CC[C@@H]4[C@@]5(C)Cc6nccnc6C(C)(C)[C@@H]5CC[C@]43C)[C@@H]12	Satisfied

Let us examine a further case.
Is Activity for "C=C(C)[C@@H]1CC[C@]2(C(=O)O)CC[C@]3(C)[C@H](CC[C@@H]4[C@@]5(C)Cc6c[nH]nc6C(C)(C)[C@@H]5CC[C@]43C)[C@@H]12" at or above 70%? Not satisfied

----------
Tested on: J774
Assay: Antiinflammatory activity against mouse J774 cells assessed as inhibition of LPS-induced COX-2 expression measured as remaining protein levels at 10 uM after 24 hrs by Western blot analysis
Assay type: functional
t if Activity is below 90%. f if not; exact matches included in f.

Example entries and their recorded answers appear below.
> print(dat)
                                   compound  category.label
1  C=C(C)[C@@H]1CC[C@]2(C(=O)O)CC[C@]3(C)[C@H](CC[C@@H]4[C@@]5(C)Cc6c([nH]c7ccc(OC)cc67)C(C)(C)[C@@H]5CC[C@]43C)[C@@H]12               f
2  C=C(C)[C@@H]1CC[C@]2(C(=O)O)CC[C@]3(C)[C@H](CC[C@@H]4[C@@]5(C)C[C@H](O)[C@H](O)C(C)(C)[C@@H]5CC[C@]43C)[C@@H]12               f
3  C=C(C)[C@@H]1CC[C@]2(CO)CC[C@]3(C)[C@H](CC[C@@H]4[C@@]5(C)CC[C@H](O)C(C)(C)[C@@H]5CC[C@]43C)[C@@H]12 [BETULIN]               f
4  C=C(C)[C@@H]1CC[C@]2(C(=O)O)CC[C@]3(C)[C@H](CC[C@@H]4[C@@]5(C)Cc6c[nH]nc6C(C)(C)[C@@H]5CC[C@]43C)[C@@H]12               t

Next, consider the following compound.
Is it true that Activity reported for "C=C(C)[C@@H]1CC[C@]2(C=O)CC[C@]3(C)[C@H](CC[C@@H]4[C@@]5(C)Cc6cnoc6C(C)(C)[C@@H]5CC[C@]43C)[C@@H]12" is less than 90%? t
